Origin of the recorded values: ChEMBL document CHEMBL1152370

# EXPERIMENTAL_SYSTEM: Human immunodeficiency virus type 1 integrase (Human immunodeficiency virus 1)
# TEST_METHOD_NOTES: Inhibition of HIV1 recombinant integrase strand transfer activity treated after enzyme assembly and washing
PARAMETER_MEASURED: IC50 (nM)
Answer with a number only, understood to be in nM.

Which IC50 value is on record for Cn1ccc(CN2CCn3c(nc(C(=O)NCc4ccc(F)cc4)c(O)c3=O)C2(C)C)n1 ?
9

Which IC50 value is on record for CC1(C)c2nc(C(=O)NCc3ccc(F)cc3)c(O)c(=O)n2CCN1CC(=O)N1CCOCC1 ?
7

Which IC50 value is on record for CCN(CC)CCN1CCn2c(nc(C(=O)NCc3ccc(F)cc3)c(O)c2=O)C1(C)C ?
76

Which IC50 value is on record for CC1(C)c2nc(C(=O)NCc3ccc(F)cc3)c(O)c(=O)n2CCN1CC(=O)N1CCCC1 ?
7

Which IC50 value is on record for CC1(C)c2nc(C(=O)NCc3ccc(F)cc3)c(O)c(=O)n2CCN1Cc1nnco1 ?
21

Which IC50 value is on record for CC1(C)c2nc(C(=O)NCc3ccc(F)cc3)c(O)c(=O)n2CCN1Cc1cn[nH]c1 ?
7

Which IC50 value is on record for CN1Cn2c(nc(C(=O)NCc3ccc(F)cc3)c(O)c2=O)C1(C)C ?
30

Which IC50 value is on record for CC1(C)c2nc(C(=O)NCc3ccc(F)cc3)c(O)c(=O)n2CCN1CCN1CCOCC1 ?
3

Which IC50 value is on record for CN1CCn2c(nc(C(=O)NCc3ccc(F)cc3)c(O)c2=O)C1(C)C ?
6

----------
# EXPERIMENTAL_SYSTEM: Human immunodeficiency virus type 1 integrase (Human immunodeficiency virus 1, UniProt Q7ZJM1)
# Sequence (Q7ZJM1 whole entry): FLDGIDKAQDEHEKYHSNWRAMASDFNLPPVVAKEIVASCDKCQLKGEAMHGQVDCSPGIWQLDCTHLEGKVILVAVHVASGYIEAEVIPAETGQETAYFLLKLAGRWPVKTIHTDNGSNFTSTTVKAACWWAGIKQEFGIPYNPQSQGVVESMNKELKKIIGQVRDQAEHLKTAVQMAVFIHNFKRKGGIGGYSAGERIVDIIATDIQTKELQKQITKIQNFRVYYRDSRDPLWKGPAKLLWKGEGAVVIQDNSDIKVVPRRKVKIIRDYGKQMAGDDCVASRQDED
# TEST_METHOD_NOTES: Inhibition of HIV1 recombinant integrase strand transfer activity treated after enzyme assembly and washing
PARAMETER_MEASURED: pIC50
FYI, pIC50 means -log10 of a concentration in mol per litre.

Which pIC50 value is on record for CC1(C)c2nc(C(=O)NCc3ccc(F)cc3)c(O)c(=O)n2CCN1S(C)(=O)=O ?
8.00

Which pIC50 value is on record for Cn1nnc(CN2CCn3c(nc(C(=O)NCc4ccc(F)cc4)c(O)c3=O)C2(C)C)n1 ?
8.22

Which pIC50 value is on record for CC1(C)c2nc(C(=O)NCc3ccc(F)cc3)c(O)c(=O)n2CCN1Cc1ccn[nH]1 ?
8.30

Which pIC50 value is on record for CN(C)CCN1CCn2c(nc(C(=O)NCc3ccc(F)cc3)c(O)c2=O)C1(C)C ?
7.21

Which pIC50 value is on record for Cn1nnnc1CN1CCn2c(nc(C(=O)NCc3ccc(F)cc3)c(O)c2=O)C1(C)C ?
8.30

Which pIC50 value is on record for CC1(C)c2nc(C(=O)NCc3ccc(F)cc3)c(O)c(=O)n2CCN1CC(N)=O ?
8.30

Which pIC50 value is on record for CNC(=O)CN1CCn2c(nc(C(=O)NCc3ccc(F)cc3)c(O)c2=O)C1(C)C ?
7.68

Which pIC50 value is on record for CC1(C)c2nc(C(=O)NCc3ccc(F)cc3)c(O)c(=O)n2CCN1CC(=O)O ?
8.10

Which pIC50 value is on record for Cn1nncc1CN1CCn2c(nc(C(=O)NCc3ccc(F)cc3)c(O)c2=O)C1(C)C ?
8.22

Which pIC50 value is on record for CN(C)C(=O)CN1CCn2c(nc(C(=O)NCc3ccc(F)cc3)c(O)c2=O)C1(C)C ?
8.10

Which pIC50 value is on record for CC1(C)c2nc(C(=O)NCc3ccc(F)cc3)c(O)c(=O)n2CCN1Cc1cocn1 ?
8.52

Which pIC50 value is on record for Cc1nnc(CN2CCn3c(nc(C(=O)NCc4ccc(F)cc4)c(O)c3=O)C2(C)C)o1 ?
8.30

Which pIC50 value is on record for CC(=O)N1CCn2c(nc(C(=O)NCc3ccc(F)cc3)c(O)c2=O)C1(C)C ?
8.30

Which pIC50 value is on record for CC1(C)NCCCn2c1nc(C(=O)NCc1ccc(F)cc1)c(O)c2=O ?
7.70

Which pIC50 value is on record for Cc1cnc(CN2CCn3c(nc(C(=O)NCc4ccc(F)cc4)c(O)c3=O)C2(C)C)o1 ?
8.10

Which pIC50 value is on record for CC1(C)c2nc(C(=O)NCc3ccc(F)cc3)c(O)c(=O)n2CCN1CCc1ccccn1 ?
7.92

Which pIC50 value is on record for CC1(C)NCCn2c1nc(C(=O)NCc1ccc(F)cc1)c(O)c2=O ?
7.80

Which pIC50 value is on record for Cn1cnc(CN2CCn3c(nc(C(=O)NCc4ccc(F)cc4)c(O)c3=O)C2(C)C)n1 ?
7.60

Which pIC50 value is on record for CC1(C)c2nc(C(=O)NCc3ccc(F)cc3)c(O)c(=O)n2CCN1Cc1cscn1 ?
8.05

Which pIC50 value is on record for CC1(C)c2nc(C(=O)NCc3ccc(F)cc3)c(O)c(=O)n2CCN1Cc1cnn[nH]1 ?
8.22

Which pIC50 value is on record for CN(C)S(=O)(=O)N1CCn2c(nc(C(=O)NCc3ccc(F)cc3)c(O)c2=O)C1(C)C ?
8.10

Which pIC50 value is on record for Cc1noc(CN2CCn3c(nc(C(=O)NCc4ccc(F)cc4)c(O)c3=O)C2(C)C)n1 ?
7.89

Which pIC50 value is on record for Cn1nccc1CN1CCn2c(nc(C(=O)NCc3ccc(F)cc3)c(O)c2=O)C1(C)C ?
8.15

Which pIC50 value is on record for CN(C)C(=O)C(=O)N1CCn2c(nc(C(=O)NCc3ccc(F)cc3)c(O)c2=O)C1(C)C ?
8.22

Which pIC50 value is on record for CN1CCN(C(=O)CN2CCn3c(nc(C(=O)NCc4ccc(F)cc4)c(O)c3=O)C2(C)C)CC1 ?
7.68

Which pIC50 value is on record for Cc1nc(CN2CCn3c(nc(C(=O)NCc4ccc(F)cc4)c(O)c3=O)C2(C)C)no1 ?
8.22

Which pIC50 value is on record for CC1(C)c2nc(C(=O)NCc3ccc(F)cc3)c(O)c(=O)n2CCN1Cc1nnn[nH]1 ?
8.70

Which pIC50 value is on record for CC1(C)c2nc(C(=O)NCc3ccc(F)cc3)c(O)c(=O)n2CCN1Cc1ccccc1 ?
8.30

----------
# TEST_METHOD_NOTES: Bioavailability in rat
# Format: ADME, organism-based
# COND: in vivo
PARAMETER_MEASURED: bioavailability (%)
Answer with a number only, understood to be in %.

Which bioavailability value is on record for CN1CCn2c(nc(C(=O)NCc3ccc(F)cc3)c(O)c2=O)C1(C)C ?
57

----------
Give measured IC50 for each item. Keep answers brief.
# EXPERIMENTAL_SYSTEM: Human immunodeficiency virus type 1 integrase (Human immunodeficiency virus 1, UniProt Q7ZJM1)
# TEST_METHOD_NOTES: Inhibition of HIV1 recombinant integrase strand transfer activity treated after enzyme assembly and washing
Answer with a number only, understood to be in nM.

Which IC50 value is on record for CN(C)[C@@H]1CCCn2c1nc(C(=O)NCc1ccc(F)cc1)c(O)c2=O ?
69

Which IC50 value is on record for CC1(C)c2nc(C(=O)NCc3ccc(F)cc3)c(O)c(=O)n2CCN1Cc1cnco1 ?
4

Which IC50 value is on record for CC1(C)NS(=O)(=O)Cn2c1nc(C(=O)NCc1ccc(F)cc1)c(O)c2=O ?
7

Which IC50 value is on record for CC1(C)c2nc(C(=O)NCc3ccc(F)cc3)c(O)c(=O)n2CCN1Cc1ccccn1 ?
9

Which IC50 value is on record for Cn1cc(CN2CCn3c(nc(C(=O)NCc4ccc(F)cc4)c(O)c3=O)C2(C)C)nn1 ?
2

----------
# EXPERIMENTAL_SYSTEM: Human immunodeficiency virus type 1 integrase (Human immunodeficiency virus 1, UniProt Q7ZJM1)
# TEST_METHOD_NOTES: Inhibition of HIV1 recombinant integrase strand transfer activity treated after enzyme assembly and washing
Entries whose IC50 is below 20 nM take 1; entries at or above 20 nM take -1.

# strict comparison: is reported IC50 < 20 nM? input = CCNC(=O)N1CCn2c(nc(C(=O)NCc3ccc(F)cc3)c(O)c2=O)C1(C)C
1

# strict comparison: is reported IC50 < 20 nM? input = CC1(C)NC(=O)Cn2c1nc(C(=O)NCc1ccc(F)cc1)c(O)c2=O
1

# strict comparison: is reported IC50 < 20 nM? input = Cc1cc(CN2CCn3c(nc(C(=O)NCc4ccc(F)cc4)c(O)c3=O)C2(C)C)on1
-1

# strict comparison: is reported IC50 < 20 nM? input = CC1(C)c2nc(C(=O)NCc3ccc(F)cc3)c(O)c(=O)n2CCN1Cc1cnccn1
1

# strict comparison: is reported IC50 < 20 nM? input = CC1(C)NC(=O)n2c1nc(C(=O)NCc1ccc(F)cc1)c(O)c2=O
-1
